- system under test: T1, mouse TEAD4(210-427) (mouse, UniProt Q62296 210-427)
- T1 construct: mouse TEAD4, residues 210-427; The tag was cleaved with 3C protease only for the crystallisation; nothing is said for SPR and FP; also called mTEAD4; source: E. coli BL21 DE3 RIL, purified (His Trap, SEC)
- T1 sequence (Q62296 210-427): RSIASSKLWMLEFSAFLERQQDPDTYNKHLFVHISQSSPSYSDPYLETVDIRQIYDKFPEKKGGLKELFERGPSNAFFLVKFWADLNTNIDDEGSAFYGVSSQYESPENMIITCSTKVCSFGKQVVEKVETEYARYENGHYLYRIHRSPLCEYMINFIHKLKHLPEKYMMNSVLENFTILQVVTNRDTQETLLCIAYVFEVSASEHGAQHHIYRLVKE
- assay method text: SPR; GST-hTEAD1 or mTEAD4 amine-coupled to a CM5 chip (10 mM MES pH 6.4), peptides as analytes; 10 mM HEPES, 150 mM NaCl, 0.05% Tween-20, pH 7.4, 20 °C, 30 µL/min; steady-state fit, 1:1 model
- test settings: both partners purified
Bridge positions count the residues as written; N and C are the ends. Ends that are not written are not given here.
property label: Kd (nM)
Supply the numeric figure in nM, leaving out any unit text.

Req: Item Ac-SAEDHFAKALGDTWLQIKAA (lactam 3-18, macrocyclic VGL4 two-helix motif 4E with one alanine; numbers count on: mouse VGL4 as in PDB 4LN0; Synthesised on Rink amide resin: C-terminal amide surmised; source: synthetic peptide) [peptide 15 (alanine scan of 4E), acetylated] has what recorded Kd?
Resp: 1500

Req: Item Ac-SVEDHFAKALGDTWAQIKAA (lactam 3-18, macrocyclic VGL4 two-helix motif 4E with one alanine; numbers count on: mouse VGL4 as in PDB 4LN0; Synthesised on Rink amide resin: C-terminal amide surmised; source: synthetic peptide) [peptide 24 (alanine scan of 4E), acetylated] has what recorded Kd?
Resp: 2000
